- target.under.test: HCV Δ21 NS5b polymerase (Hepatitis C virus genotype 1b, UniProt Q9WMX2)
pIC50: −log10 of the molar value.
measured.attribute: pIC50

What does the record list as pIC50 for C[C@@]1(O)[C@H](O)[C@@H](COP(=O)(O)O)O[C@@]1(C#N)c1ccc2c(N)ncnn12 ?
> 6.00
